Assay: binders of probe aFGF10 on microarray, primary screen, stem cell growth factor project, biochemical, small-molecule microarray, fluorescence 635/667 (AID 1071);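 also: score merges 667 nm spot intensity and signal to noise from triplicate slides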
Conditions: higher = more signal
The following molecules are shown together with reported composite z-score values.

{"molecule": "CC(C)=CCCC(C)=CCON=C1C[C@@H](O)[C@@H](O)[C@@H]2[C@@H]3C(=O)N(Cc4ccc5c(c4)OCO5)C(=O)[C@@H]3CC[C@H]12", "composite z-score": 0.584}
{"molecule": "COC(=O)[C@H](C)NC(=O)CCC1CC(OC(=O)NCCc2ccc(F)cc2)CC2(CCCC(COC(=O)NCCc3ccccc3OC)O2)O1 (stereo not given in full)", "composite z-score": 0.706}
{"molecule": "COc1ccc(COC(=O)NN=C2C[C@@H](O)[C@@H](O)[C@@H]3[C@@H]4C(=O)N(Cc5ccccc5)C(=O)[C@@H]4CC[C@@H]23)cc1", "composite z-score": 0.291}
{"molecule": "CO[C@@H]1COC(=O)CC=C[C@H](C)[C@H](OC)COC(=O)[C@@H]2CCCN2C(=O)CC=C[C@H]1C", "composite z-score": 0.0967}
{"molecule": "CO[C@H]1COC(=O)[C@H](C)COC(=O)[C@H](C)NC(=O)CC=C[C@H]1C", "composite z-score": 0.37}
{"molecule": "C=CC[C@@H]1C=CC(ON=C(C)C)[C@@H](CO)O1 (stereo not given in full)", "composite z-score": -0.246}
{"molecule": "CCN1C(=O)[C@H]2[C@H]3[C@H](O)[C@H](O)CC(=NNC(=O)OCc4ccccc4)[C@H]3CC[C@H]2C1=O", "composite z-score": -0.0005}
{"molecule": "CO[C@H]1COC(=O)[C@H](CCSC)NC(=O)CC=C[C@@H](C)[C@H](OC)COC(=O)[C@@H](OCc2ccccc2)C=C[C@@H]1C", "composite z-score": 0.227}
{"molecule": "COc1cccc([C@H]2Oc3ccc(OC)cc3C(=NOCC[C@@H]3C=C[C@H](OC(C)=O)[C@@H](COC(C)=O)O3)[C@@H]2O)c1", "composite z-score": 0.577}
{"molecule": "CO[C@H]1COC(=O)[C@H](C)COC(=O)[C@@H](OCc2ccccc2)C=C[C@@H]1C", "composite z-score": 0.0844}
{"molecule": "O=C1[C@H]2[C@H]3[C@H](O)[C@H](O)CC(=NOCc4ccccc4)[C@@H]3CC[C@H]2C(=O)N1c1cccc(Oc2ccccc2)c1", "composite z-score": 0.554}
{"molecule": "COC(=O)[C@@H]1CC[C@H](C)[C@@H](c2ccc(C)cc2)N1C(=O)c1ccc(C=NO[C@@H](C)c2cc(-c3c(C)cc(C)cc3C)no2)cc1", "composite z-score": 0.219}
{"molecule": "CC(=O)OC[C@H]1O[C@H](CC=NOCC[C@@H]2C=C[C@H](OC(C)=O)[C@@H](COC(C)=O)O2)C=C[C@@H]1OC(C)=O", "composite z-score": 0.414}
{"molecule": "COc1ccc(OC[C@@H](CO)OC)cc1", "composite z-score": 0.3}
{"molecule": "CCCNC(=O)OC[C@H]1O[C@H](CCON=C2C[C@@H](O)[C@@H](O)[C@@H]3[C@@H]4C(=O)N(CC)C(=O)[C@@H]4CC[C@@H]23)C=C[C@@H]1Oc1ccc(OC)cc1", "composite z-score": 0.64}

---

The following compounds are shown together with reported z-score values.
Target: NADPH oxidase 2 (Homo sapiens)
Assay: NOX2-dependent H2O2 signal modulators, primary screen, NOX inhibitor project, cell-based, HEK293-NOX2, PMA-stimulated, Amplex Red fluorescence (AID 1159); also: test concentration not given here
Conditions: 45 min, higher = more signal, called active from +8 up or from −8 down
result type: z-score

{"compound": "CCOC(=O)CCN1C(=O)[C@H]2[C@@H]3C(=CC[C@H]2C1=O)C(=O)[C@H]1O[C@H]1[C@H]3O", "reading": 0.955}
{"compound": "COc1ccc(COC(=O)NN=C2C[C@@H](O)[C@@H](O)[C@@H]3[C@@H]4C(=O)N(C[C@@H]5CCCO5)C(=O)[C@@H]4CC[C@H]23)cc1", "reading": -3.46}
{"compound": "COc1ccc(O[C@H]2C=C[C@@H](c3ccccc3)O[C@@H]2COC(=O)CCC(C)=NOC[C@@H](O)COCc2ccco2)cc1", "reading": -3.53}
{"compound": "O=C1C2=CC[C@H]3C(=O)N(C[C@@H]4CCCO4)C(=O)[C@H]3[C@H]2[C@H](O)[C@@H]2O[C@H]12", "reading": -1.35}
{"compound": "C[C@@H]1C=CCC(=O)OC[C@H](C)C(=O)N[C@@H](Cc2ccccc2)C(=O)OC1", "reading": -0.348}
{"compound": "CC(=O)OC[C@H]1O[C@@H](ON=C(C)C)[C@H](OC(C)=O)[C@@H](OC(C)=O)[C@@H]1OC(C)=O", "reading": 1.27}
{"compound": "C[C@@H]1CC[C@H]2C(=O)N3[C@@H](CC[C@@H](C)[C@@H]3c3ccc(Br)cc3)C(=O)N2[C@H]1c1ccc(Br)cc1", "reading": 1.79}
{"compound": "C=C(C)C(=O)OC[C@H]1CN2[C@@H](CC[C@@H](C)[C@@H]2c2ccc(Br)cc2)C(=O)O1", "reading": -1.81}
{"compound": "CC(=O)OC[C@H]1O[C@H](CC=NOC[C@@H](O)[C@H]2O[C@@H]3OC(C)(C)O[C@@H]3[C@H]2O)C=C[C@@H]1OC(C)=O", "reading": -0.462}
{"compound": "O=C1[C@H]2CCn3c(=O)n(Cc4cc5c(cc4Cl)OCO5)c(=O)n3[C@H]2[C@H](O)[C@@H]2O[C@H]12", "reading": -0.664}
{"compound": "OC[C@H]1O[C@H](C#Cc2ccccc2)C=C[C@@H]1O", "reading": -0.178}
{"compound": "CC(CCC(=O)OC[C@H]1O[C@H](C#Cc2ccccc2)C=C[C@@H]1Oc1ccc(C)cc1)=NOC(C)CN1CCCCc2nc(C)c(C)cc21 (stereo not given in full)", "reading": -0.802}
{"compound": "CC(C)(C)N1C(=O)[C@H]2[C@H]3[C@H](O)[C@H](O)CC(=NNC(=O)OCc4ccccc4)[C@H]3CC[C@H]2C1=O", "reading": -1.18}
{"compound": "CCOC(=O)[C@H](CC(C)C)NC(=O)CCC1CC(OC(=O)NCCc2ccc(F)cc2)CC2(CCCC(COC(=O)NCc3cccc(C(F)(F)F)c3)O2)O1 (stereo not given in full)", "reading": 0.61}
{"compound": "COc1ccc(O[C@H]2C=C[C@@H](C#Cc3ccccc3)O[C@@H]2CO)cc1", "reading": 1.33}

---

Molecular target: Focal adhesion kinase 1 (Homo sapiens)
Experiment: small-molecule microarray binders of FAK, primary screen, biochemical, 635/667 nm fluorescence, BSA, DTT (AID 1130);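 also: composite of spot emission at 667 nm and signal to noise over triplicate slides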
Settings: PTK2 binding, 635 nm fluorescence, higher = more signal
The following molecules are shown together with reported composite z-score values.

{"molecule": "O=C1CCCC=C1C(O)c1ccc([N+](=O)[O-])cc1 (stereo not given)", "composite z-score": -0.126}
{"molecule": "CCCNC(=O)OC[C@H]1O[C@H](CCON=C[C@@H](C)[C@H](OCc2ccccc2)C(C)C)C=C[C@@H]1Oc1ccc(OC)cc1", "composite z-score": -0.072}
{"molecule": "COc1ccc(O[C@H]2C=C[C@@H](C#Cc3ccccc3)O[C@@H]2CO)cc1", "composite z-score": 0.0306}
{"molecule": "C[C@@H]1CC[C@H]2C(=O)OC(Cc3ccccc3)CN2[C@H]1c1ccc(Br)cc1 (stereo not given in full)", "composite z-score": -0.0103}
{"molecule": "O=C1C[C@@H](O)[C@@H](O)[C@@H]2[C@@H]3C(=O)N(C4CCCCC4)C(=O)[C@@H]3CC[C@@H]12", "composite z-score": -0.0599}
{"molecule": "COC(=O)[C@H](C)NC(=O)CCC1CC(OC(=O)NCc2cccc3ccccc23)CC2(CCCC(COC(=O)NCCCN3CCCC3=O)O2)O1 (stereo not given in full)", "composite z-score": 0.926}
{"molecule": "CCOC(=O)[C@H](Cc1ccccc1)NC(=O)CCC1CC(OC(=O)NCc2ccc3c(c2)OCO3)CC2(CCCC(COC(=O)NCCc3ccc(Cl)cc3)O2)O1 (stereo not given in full)", "composite z-score": 0.762}
{"molecule": "CC(=O)OC[C@H]1O[C@@H](ON=C(C)CCC(=O)OC[C@H]2O[C@H](C#Cc3ccccc3)C=C[C@@H]2Oc2ccc(C)cc2)[C@H](OC(C)=O)[C@@H](OC(C)=O)[C@@H]1OC(C)=O", "composite z-score": 0.108}
{"molecule": "COc1ccc(COC(=O)NN=C2C[C@@H](O)[C@@H](O)[C@@H]3[C@@H]4C(=O)N(Cc5ccccc5)C(=O)[C@@H]4CC[C@@H]23)cc1", "composite z-score": 0.0398}
{"molecule": "CCOC(=O)CCN1C(=O)[C@H]2[C@H]3[C@H](O)[C@H](O)CC(=NNC(=O)OCC)[C@H]3CC[C@H]2C1=O", "composite z-score": 0.276}
{"molecule": "CC(C)=CCCC(C)=CCON=C1[C@H]2CCn3c(=O)n(-c4ccccc4)c(=O)n3[C@H]2[C@H](O)[C@@H]2O[C@H]12", "composite z-score": 0.274}
{"molecule": "CON=C(C)CCN1CCc2nc(-c3ccccc3)c(-c3ccccc3)cc2C1", "composite z-score": -0.414}
{"molecule": "CCN1C(=O)[C@H]2[C@@H]3C(=CC[C@H]2C1=O)C(=O)[C@H]1O[C@H]1[C@H]3O", "composite z-score": -0.204}
{"molecule": "CCOC(=O)[C@H](CC(C)C)NC(=O)CCC1CC(OC(=O)NCc2ccc3c(c2)OCO3)CC2(CCCC(COC(=O)NCc3ccccc3)O2)O1 (stereo not given in full)", "composite z-score": 0.0786}
{"molecule": "COC(=O)[C@H](C)NC(=O)CCC1CC(OC(=O)NCCc2ccc(F)cc2)CC2(CCCC(COC(=O)NCCc3ccccc3OC)O2)O1 (stereo not given in full)", "composite z-score": 0.0694}
